# Tested on: ESBL-producing Klebsiella pneumoniae
# methodDescription: Susceptibility testing MIC/MBC, broth microdilution (Example 2)
# Format: cell-based
# conditionDetails: Klebsiella pneumoniae, K. pneumonia isolate no. 5427; read-out: MIC
List of MIC values.
endpointLabel: MIC (µg/mL)

[
  {
    "smilesStr": "NCC[C@H](O)C(=O)N[C@@H]1C[C@H](N)[C@@H](O[C@H]2O[C@H](CN)[C@@H](O)[C@H](O)[C@H]2O)[C@H](O)[C@H]1O[C@H]1O[C@H](CO)[C@@H](O)[C@H](N)[C@H]1O",
    "valueReported": 2
  },
  {
    "smilesStr": "C[C@@H](O)[C@H]1C(=O)N2C(C(=O)O)=C(S[C@@H]3CN[C@H](C(=O)N(C)C)C3)[C@H](C)[C@H]12",
    "valueReported": 0.06
  },
  {
    "smilesStr": "C[C@H]1COc2c(N3CCN(C)CC3)c(F)cc3c(=O)c(C(=O)O)cn1c23",
    "valueReported": 0.25
  },
  {
    "smilesStr": "C[C@H]1[C@H](NC(=O)/C(=N\\OC(C)(C)C(=O)O)c2csc(N)n2)C(=O)N1S(=O)(=O)O",
    "valueReported": 0.5
  },
  {
    "smilesStr": "CCO/N=C(\\C(=O)N[C@@H]1C(=O)N2C(C(=O)[O-])=C(Sc3nc(-c4cc[n+](C)cc4)cs3)CS[C@H]12)c1nsc(N)n1",
    "valueReported": 4
  }
]

----------
# Test system: Klebsiella pneumoniae
# methodDescription: MIC, broth microdilution (Example 1)
# Type: cell-based
# conditionDetails: Klebsiella pneumoniae, K. pneumoniae 1461; read-out: MIC
endpointLabel: MIC (µg/mL)

[
  {
    "compound": "C[C@H]1COc2c(N3CCN(C)CC3)c(F)cc3c(=O)c(C(=O)O)cn1c23 [Levofloxacin]",
    "qualifier": ">",
    "valueReported": 4
  },
  {
    "compound": "CCO/N=C(\\C(=O)N[C@@H]1C(=O)N2C(C(=O)[O-])=C(Sc3nc(-c4cc[n+](C)cc4)cs3)CS[C@H]12)c1nsc(N)n1 [Ceftaroline]",
    "qualifier": "=",
    "valueReported": 0.25
  },
  {
    "compound": "C[C@H]1[C@H](NC(=O)/C(=N\\OC(C)(C)C(=O)O)c2csc(N)n2)C(=O)N1S(=O)(=O)O [Aztreonam]",
    "qualifier": "=",
    "valueReported": 0.25
  },
  {
    "compound": "NCC[C@H](O)C(=O)N[C@@H]1C[C@H](N)[C@@H](O[C@H]2O[C@H](CN)[C@@H](O)[C@H](O)[C@H]2O)[C@H](O)[C@H]1O[C@H]1O[C@H](CO)[C@@H](O)[C@H](N)[C@H]1O [Amikacin]",
    "qualifier": "=",
    "valueReported": 1
  }
]

----------
List of MIC range values.
# Test system: AmpC-derepressed Enterobacter cloacae
# methodDescription: microbe, parasite or virus in culture
# Format: cell-based
# conditionDetails: E. cloacae (10) clinical isolates

[
  {
    "smilesStr": "CCO/N=C(\\C(=O)N[C@@H]1C(=O)N2C(C(=O)[O-])=C(Sc3nc(-c4cc[n+](C)cc4)cs3)CS[C@H]12)c1nsc(N)n1",
    "MIC range": "0.125 to 512 µg/mL"
  },
  {
    "smilesStr": "C[C@@H](O)[C@H]1C(=O)N2C(C(=O)O)=C(S[C@@H]3CN[C@H](C(=O)N(C)C)C3)[C@H](C)[C@H]12",
    "MIC range": "0.03 to 0.25 µg/mL"
  },
  {
    "smilesStr": "C[C@H]1COc2c(N3CCN(C)CC3)c(F)cc3c(=O)c(C(=O)O)cn1c23",
    "MIC range": "0.03 to 64 µg/mL"
  },
  {
    "smilesStr": "NCC[C@H](O)C(=O)N[C@@H]1C[C@H](N)[C@@H](O[C@H]2O[C@H](CN)[C@@H](O)[C@H](O)[C@H]2O)[C@H](O)[C@H]1O[C@H]1O[C@H](CO)[C@@H](O)[C@H](N)[C@H]1O",
    "MIC range": "0.5 to 4 µg/mL"
  },
  {
    "smilesStr": "CN(C)c1cc(NC(=O)CNC(C)(C)C)c(O)c2c1C[C@H]1C[C@H]3[C@H](N(C)C)C(O)=C(C(N)=O)C(=O)[C@@]3(O)C(O)=C1C2=O",
    "MIC range": "0.25 to 2 µg/mL"
  }
]

----------
# Tested on: HA-MRSA
# methodDescription: Susceptibility testing MIC/MBC, broth microdilution (Example 3)
# Format: cell-based, Staphylococcus aureus
# conditionDetails: 200 HA-MRSA isolates
List of % of Isolates with MBC 1 μg/mL values.
endpointLabel: % of Isolates with MBC 1 μg/mL

[
  {
    "compound": "CCCCCCCCCC(=O)N[C@@H](Cc1c[nH]c2ccccc12)C(=O)N[C@H](CC(N)=O)C(=O)N[C@@H](CC(=O)O)C(=O)N[C@@H]1C(=O)NCC(=O)N[C@@H](CCCN)C(=O)N[C@@H](CC(=O)O)C(=O)N[C@H](C)C(=O)N[C@@H](CC(=O)O)C(=O)NCC(=O)N[C@H](CO)C(=O)N[C@@H]([C@H](C)CC(=O)O)C(=O)N[C@@H](CC(=O)c2ccccc2N)C(=O)O[C@@H]1C [Daptomycin]",
    "valueReported": "5%"
  },
  {
    "compound": "CC(=O)NC[C@H]1CN(c2ccc(N3CCOCC3)c(F)c2)C(=O)O1 [Linezolid]",
    "valueReported": "12%"
  },
  {
    "compound": "CCO/N=C(\\C(=O)N[C@@H]1C(=O)N2C(C(=O)[O-])=C(Sc3nc(-c4cc[n+](C)cc4)cs3)CS[C@H]12)c1nsc(N)n1 [Ceftaroline]",
    "valueReported": "62.5%"
  },
  {
    "compound": "CN[C@H](CC(C)C)C(=O)N[C@H]1C(=O)N[C@@H](CC(N)=O)C(=O)N[C@H]2C(=O)N[C@H]3C(=O)N[C@H](C(=O)N[C@H](C(=O)O)c4cc(O)cc(O)c4-c4cc3ccc4O)[C@H](O)c3ccc(c(Cl)c3)Oc3cc2cc(c3O[C@@H]2O[C@H](CO)[C@@H](O)[C@H](O)[C@H]2O[C@H]2C[C@](C)(N)[C@H](O)[C@H](C)O2)Oc2ccc(cc2Cl)[C@H]1O [Vancomycin]",
    "valueReported": "52.5%"
  }
]

----------
# Test system: HA-MRSA
# methodDescription: Susceptibility testing MIC/MBC, broth microdilution (Example 3)
# Format: cell-based, Staphylococcus aureus
# conditionDetails: 200 HA-MRSA isolates
List of % of Isolates with MIC 0.25 μg/mL values.

[
  {
    "compound": "CN[C@H](CC(C)C)C(=O)N[C@H]1C(=O)N[C@@H](CC(N)=O)C(=O)N[C@H]2C(=O)N[C@H]3C(=O)N[C@H](C(=O)N[C@H](C(=O)O)c4cc(O)cc(O)c4-c4cc3ccc4O)[C@H](O)c3ccc(c(Cl)c3)Oc3cc2cc(c3O[C@@H]2O[C@H](CO)[C@@H](O)[C@H](O)[C@H]2O[C@H]2C[C@](C)(N)[C@H](O)[C@H](C)O2)Oc2ccc(cc2Cl)[C@H]1O [Vancomycin]",
    "unitAnnotation": "%",
    "% of Isolates with MIC 0.25 μg/mL": 1.5
  },
  {
    "compound": "CCCCCCCCCC(=O)N[C@@H](Cc1c[nH]c2ccccc12)C(=O)N[C@H](CC(N)=O)C(=O)N[C@@H](CC(=O)O)C(=O)N[C@@H]1C(=O)NCC(=O)N[C@@H](CCCN)C(=O)N[C@@H](CC(=O)O)C(=O)N[C@H](C)C(=O)N[C@@H](CC(=O)O)C(=O)NCC(=O)N[C@H](CO)C(=O)N[C@@H]([C@H](C)CC(=O)O)C(=O)N[C@@H](CC(=O)c2ccccc2N)C(=O)O[C@@H]1C [Daptomycin]",
    "unitAnnotation": "%",
    "% of Isolates with MIC 0.25 μg/mL": 58.5
  },
  {
    "compound": "CCO/N=C(\\C(=O)N[C@@H]1C(=O)N2C(C(=O)[O-])=C(Sc3nc(-c4cc[n+](C)cc4)cs3)CS[C@H]12)c1nsc(N)n1 [Ceftaroline]",
    "unitAnnotation": "%",
    "% of Isolates with MIC 0.25 μg/mL": 4
  },
  {
    "compound": "CC(=O)NC[C@H]1CN(c2ccc(N3CCOCC3)c(F)c2)C(=O)O1 [Linezolid]",
    "unitAnnotation": "%",
    "% of Isolates with MIC 0.25 μg/mL": 9.5
  }
]

Provenance of the data: patent US20100197650A1
